system: mice; assay: Neuropharmacological assay (SmartCube), behavioral signature of compound-treated mice; assay type: in vivo; conditions: i.p. 15 min before behavioral test, most efficacious dose(s) of 3 doses
assay.endpoint: CE: cognitive enhancer (probability that behavioral signature matches class)

Examples with their reported CE: cognitive enhancer (probability that behavioral signature matches class) follow.
# compound, result
rows = [
    ("Fc1ccc2c(c1)[C@H]([C@H]1CCN1)OCC2", "+ (LOQ ≤ + <5%)"),
    ("Fc1cccc2c1[C@@H]([C@@H]1CCN1)OCC2", "+ (LOQ ≤ + <5%)"),
    ("c1ccc2c(c1)CCO[C@H]2[C@@H]1CCN1 [Compound I-80, (S)-2-((R)-iso-chroman-1-yl)azetidine]", "++ (5% ≤ ++ <25%)"),
    ("Fc1cccc2c1CCO[C@@H]2[C@H]1CCCN1", "++ (5% ≤ ++ <25%)"),
    ("CC1(C)CN[C@@H]([C@H]2OCCc3ccccc32)C1", "+++ (25% ≤ +++ <50%)"),
]

Kindly give each listed record's CE: cognitive enhancer (probability that behavioral signature matches class).
1. Cc1cccc2c1[C@H]([C@H]1CCCN1)OCCC2
2. Fc1ccc2c(c1)CO[C@H]2[C@H]1CCN1

1: + (LOQ ≤ + <5%); 2: + (LOQ ≤ + <5%)

Kindly give each listed record's CE: cognitive enhancer (probability that behavioral signature matches class).
1. Fc1ccc2c(c1)CCCO[C@@H]2[C@H]1CCCN1
2. Fc1ccc2c(c1)[C@@H](F)CO[C@H]2[C@@H]1CCCN1
3. FC1(F)CN[C@H]([C@H]2OCCc3ccccc32)C1
4. Fc1cccc2c1[C@@H]([C@@H]1CCCN1)OCC2
5. Fc1cccc2c1[C@H]([C@@H]1CCCN1)OCC2

1: ++ (5% ≤ ++ <25%); 2: + (LOQ ≤ + <5%); 3: + (LOQ ≤ + <5%); 4: + (LOQ ≤ + <5%); 5: ++ (5% ≤ ++ <25%)

Kindly give each listed record's CE: cognitive enhancer (probability that behavioral signature matches class).
1. Fc1cccc2c1[C@H]([C@@H]1CCN1)OCC2
2. Cc1ccc2c(c1)[C@H](C1CNC1)OCC2 [Compound I-117, (S)-3-(7-methylisochroman-1-yl)azetidine]

1: +++ (25% ≤ +++ <50%); 2: ++ (5% ≤ ++ <25%)

Kindly give each listed record's CE: cognitive enhancer (probability that behavioral signature matches class).
1. Cc1ccc2c(c1)[C@H]([C@@H]1CCCN1)OCC2
2. Fc1ccc2c(c1)CCO[C@H]2[C@@H]1CCCN1

["++ (5% ≤ ++ <25%)", "++ (5% ≤ ++ <25%)"]

---

test system: mice; assay: Neuropharmacological assay (SmartCube), behavioral signature of compound-treated mice; format: in vivo; details: i.p. 15 min before behavioral test, most efficacious dose(s) of 3 doses
assay.endpoint: AX: anxiolytic (probability that behavioral signature matches class)

# compound.smiles, result
records = [
    ("Fc1ccc2c(c1)[C@@H]([C@@H]1CCCN1)OCCC2", "++ (5% ≤ ++ <25%)"),
    ("FC1(F)CO[C@H]([C@@H]2CCCN2)c2ccccc21", "++ (5% ≤ ++ <25%)"),
    ("N#Cc1ccc2c(c1)[C@H]([C@@H]1CCCN1)OCC2", "++ (5% ≤ ++ <25%)"),
    ("Fc1cccc2c1[C@@H]([C@@H]1CCCN1)OCC2", "++ (5% ≤ ++ <25%)"),
    ("CC1(C)CN[C@@H]([C@H]2OCCc3ccccc32)C1", "++ (5% ≤ ++ <25%)"),
    ("Fc1ccc2c(c1)CO[C@H]2[C@@H]1CCCN1", "++ (5% ≤ ++ <25%)"),
    ("CC1(C)Cc2ccccc2[C@H]([C@H]2CCCN2)O1", "+ (LOQ ≤ + <5%)"),
    ("c1cc(-c2ccc3c(c2)CCO[C@@H]3[C@@H]2CCCN2)on1", "+ (LOQ ≤ + <5%)"),
    ("Fc1ccc2c(c1)CCO[C@@H]2[C@@H]1CCCN1", "++ (5% ≤ ++ <25%)"),
]

Read the next record carefully.
Endpoint output: AX: anxiolytic (probability that behavioral signature matches class) of C[C@]1([C@H]2CCCN2)OCc2cc(F)ccc21 . Value? ++ (5% ≤ ++ <25%)
